Please respond with reported % Untreated Control - Extent of Aggregation Response to Collagen, untreated for every item in the list.
System: platelets
assayName: Platelet aggregation in response to collagen after treatment of platelet concentrate
Type: cell-based
testConditions: flavonoid present, no AMT/UVA treatment, overnight storage
Answers are plain numbers, in % Untreated Control.

Give me % Untreated Control - Extent of Aggregation Response to Collagen, untreated for each of these compounds, listed below.
1. C[C@@H]1O[C@@H](O[C@H]2[C@H](Oc3cc(O)c4c(c3)O[C@H](c3ccc(O)cc3)CC4=O)O[C@H](CO)[C@@H](O)[C@@H]2O)[C@H](O)[C@H](O)[C@H]1O
2. COc1ccc([C@@H]2CC(=O)c3c(O)cc(O[C@@H]4O[C@H](CO[C@@H]5O[C@@H](C)[C@H](O)[C@@H](O)[C@H]5O)[C@@H](O)[C@H](O)[C@H]4O)cc3O2)cc1O

1: 90; 2: 98
